B1: library; numbered along this chain (parent)
chain: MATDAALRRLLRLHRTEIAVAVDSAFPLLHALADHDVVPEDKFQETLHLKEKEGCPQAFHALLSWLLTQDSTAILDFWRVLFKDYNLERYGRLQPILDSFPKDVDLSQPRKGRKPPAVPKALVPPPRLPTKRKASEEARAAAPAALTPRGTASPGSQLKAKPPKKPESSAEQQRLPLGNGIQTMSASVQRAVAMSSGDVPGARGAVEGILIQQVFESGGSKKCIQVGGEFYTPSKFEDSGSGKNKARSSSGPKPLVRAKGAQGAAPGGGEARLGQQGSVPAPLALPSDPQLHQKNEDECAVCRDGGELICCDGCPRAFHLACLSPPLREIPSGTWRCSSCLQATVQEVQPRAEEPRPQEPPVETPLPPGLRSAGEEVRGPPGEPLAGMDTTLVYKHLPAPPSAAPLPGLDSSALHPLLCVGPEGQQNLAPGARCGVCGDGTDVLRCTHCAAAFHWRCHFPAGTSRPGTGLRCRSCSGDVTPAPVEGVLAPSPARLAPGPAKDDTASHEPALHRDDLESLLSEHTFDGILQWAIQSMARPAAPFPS

variants of: B1; experiment: AIRE transcriptional activation functional score (insulin promoter-GFP; nonsense median 0, synonymous median 1) (normalised score); higher = higher AIRE activity (more reporter activation); conditions: with insulin promoter-GFP reporter in HEK293
Each record's class is read off its AIRE transcriptional activation functional score using these ranges: small value (below 0.5), mid value (0.5 to below 1), large value (1 or more)

Ask: Looking at `G54Q` , which class would you pick?
Reply: small value

Data origin: the supplement of paper PMC12667976
